target.system: T1, ZFP SBS#1319 (synthetic)
T1 chain: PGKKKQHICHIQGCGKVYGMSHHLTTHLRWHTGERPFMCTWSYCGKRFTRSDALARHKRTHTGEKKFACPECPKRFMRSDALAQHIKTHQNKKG
measurement.notes: EMSA
condition.parameters: tags: MBP fusion
measured.quantity: pKd
Here pKd is given on a logarithmic scale as minus log10 of the concentration in mol/L.

Give the reported pKd for this binder. ATGGTGTGT (dsDNA) DNA 1: ATGGTGTGT DNA 2: ACACACCAT 9.64
